The reported numbers originate from ChEMBL document CHEMBL5230081.

The molecules listed here are annotated with their Ka.
Assay: Binding affinity to D-Ala-D-Lac
Measured metric: Ka

# Line notation, Recorded value
records = [
    ("CCCCCCCC[n+]1ccc(CN[C@@]2(C)C[C@H](O[C@H]3[C@H](Oc4c5cc6cc4Oc4ccc(cc4Cl)[C@@H](O)[C@@H](NC(=O)[C@@H](CC(C)C)NC)C(=O)N[C@@H](CC(N)=O)C(=O)N[C@H]6C(=O)N[C@H]4C(=O)N[C@H](C(=O)N[C@H](C(=O)NC(=O)[C@H](O)[C@@H](O)[C@H](O[C@@H]6O[C@H](CO)[C@@H](O)[C@H](O)[C@H]6O)[C@H](O)CO)c6cc(O)cc(O)c6-c6cc4ccc6O)[C@H](O)c4ccc(c(Cl)c4)O5)O[C@H](CO)[C@@H](O)[C@@H]3O)O[C@@H](C)[C@H]2O)cc1", "5.7 10^4/M"),
    ("CN[C@H](CC(C)C)C(=O)N[C@H]1C(=O)N[C@@H](CC(N)=O)C(=O)N[C@H]2CN[C@H]3C(=O)N[C@H](C(=O)N[C@H](C(=O)O)c4cc(O)cc(O)c4-c4cc3ccc4O)[C@H](O)c3ccc(c(Cl)c3)Oc3cc2cc(c3O)Oc2ccc(cc2Cl)[C@H]1O", "5.2 10^3/M"),
    ("CCCCCCCCCCN[C@@]1(C)C[C@H](O[C@H]2[C@H](Oc3c4cc5cc3Oc3ccc(cc3Cl)[C@@H](O)[C@@H](NC(=O)[C@@H](CC(C)C)NC)C(=O)N[C@@H](CC(N)=O)C(=O)N[C@H]5C(=O)N[C@H]3C(=O)N[C@H](C(=O)N[C@H](C(=O)ONCCCNC(=O)[C@H](O)[C@@H](O)[C@H](O[C@@H]5O[C@H](CO)[C@H](O)[C@H](O)[C@H]5O)[C@H](O)CO)c5cc(O)cc(O)c5-c5cc3ccc5O)[C@H](O)c3ccc(c(Cl)c3)O4)O[C@H](CO)[C@@H](O)[C@@H]2O)O[C@@H](C)[C@H]1O", "6 10^4/M"),
    ("CN[C@H](CC(C)C)C(=O)N[C@H]1C(=O)N[C@@H](CC(N)=O)C(=O)N[C@H]2C(=N)N[C@H]3C(=O)N[C@H](C(=O)N[C@H](C(=O)O)c4cc(O)cc(O)c4-c4cc3ccc4O)[C@H](O)c3ccc(c(Cl)c3)Oc3cc2cc(c3O)Oc2ccc(cc2Cl)[C@H]1O", "6.9 10^4/M"),
    ("CN[C@H](CC(C)C)C(=O)N[C@H]1C(=O)N[C@@H](CC(N)=O)C(=O)N[C@H]2C(=S)N[C@H]3C(=O)N[C@H](C(=O)N[C@H](C(=O)O)c4cc(O)cc(O)c4-c4cc3ccc4O)[C@H](O)c3ccc(c(Cl)c3)Oc3cc2cc(c3O)Oc2ccc(cc2Cl)[C@H]1O", "1.1 10^1/M"),
]
